Taken from patent US10077436B2.

Target: S-BG (Novozymes SP188 from Sigma), commercial beta-glucosidase
Experiment: BG kinetics, pNPG hydrolysis assay with glucose as competitive inhibitor, S-BG
Assay type: biochemical
Conditions: pNPG substrate, competitive inhibition, pH 5.0, 50° C.
pKi: −log10 of the molar value.
RECORDED_METRIC: pKi

compound="OC[C@H]1OC(O)[C@H](O)[C@@H](O)[C@@H]1O (stereo partly shown)" study_system="S-BG (Novozymes SP188 from Sigma), commercial beta-glucosidase" recorded_metric=pKi result_value=3.09
